The measured values listed here are drawn from patent US20240417469A1.

Could you please report measured log10(koff) for the items listed next?
Target: T1, recombinant CD3D&E protein (human CD3-his tag) (human, UniProt P04234 22-105; P07766 23-126, limits assumed)
T1 construct: Analyte in Biacore; also called CD3D&E-His; CD3d&ε-His
T1 sequence (P04234 22-105 limits assumed, chain 1 of 2): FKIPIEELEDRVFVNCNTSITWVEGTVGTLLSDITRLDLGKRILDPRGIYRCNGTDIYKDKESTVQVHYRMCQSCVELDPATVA
T1 sequence (P07766 23-126 limits assumed, chain 2 of 2): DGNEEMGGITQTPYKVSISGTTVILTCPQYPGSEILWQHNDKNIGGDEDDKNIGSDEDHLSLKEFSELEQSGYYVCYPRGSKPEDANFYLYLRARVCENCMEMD
Assay: SPR Biacore, Ab captured on Protein A;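 further: humanized antibodies on a Protein A chip, human CD3-his analyte flowed over in serial dilutions for 3 min, dissociation tracked 120–360 s on a Biacore T200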
Lab note - koff converted to log10 from values in s⁻¹.

Here are 5 binders. What values of log10(koff) were reported for them?
1. Hu155A9B1-1 (antibody, V domains shown, humanized mAb) VH: EVQLQESGPGLVKPSETLSLTCTVSGGSISSYNVHWIRQPPGKGLEWIGRVRYNGDTSYNSALKSRVTISVDTSKNQFSLKLSSVTAADTAVYYCARGPYGGSSEPLFDYWGQGTMVTVSS VL: DIQMTQSPSSLSASVGDRVTITCKASQNINKYLNWYQQKPGKAPRLLIYTTNNLQTGVPSRFSGSGSGTDFTLTISSLQPEDFATYYCLQHNSGYTFGQGTKLEIK
2. Hu192A7B9-23 (antibody, V domains shown, humanized mAb) VH: EVQLQESGPGLVKPSETLSLTCTVSGFSISSYNVHWVRQPPGKGLEWMGRMRYNGDTSYNSALKSRLTISRDTSKNQVSLKLSSVTAADTAVYYCTRGPRGGYYSALFDYWGQGTMVTVSS VL: DIQMTQSPSSLSASVGDRVTITCKASQNINRYLNWYQQKPGKAPKVLISIANSLQTGIPSRFSGSGSGTDFTLTISSLQPEDFATYFCLQHNSWYTFGQGTKLEIK
3. Hu153A6B1-14 (antibody, V domains shown, humanized mAb) VH: EVQLQESGPGLVKPSETLSLTCTVSGGSISSYNIHWVRQPPGKGLEWIGRIRYNGDTSYNSALKSRVTISRDTSKNQFSLKLSSVTAADTAVYYCARGPYGGSREPLFDYWGQGTMVTVSS VL: DIQMTQSPSSLSASVGDRVTITCKTSQNINKYLNWFQQKPGKAPKLLIYTTNNLQTGIPSRFSGSGSGTDFTLTISSLQPEDFATYFCLQHGSGYTFGQGTKLEIK
4. Hu155A9B1-5 (antibody, V domains shown, humanized mAb; also called 155z5) VH: EVQLQESGPGLVKPSETLSLTCTVSGFSISSYNVHWVRQPPGKGLEWMGRVRYNGDTSYNSALKSRLTISRDTSKNQASLKLSSVTAADTAVYYCTRGPYGGSSEPLFDYWGQGTMVTVSS VL: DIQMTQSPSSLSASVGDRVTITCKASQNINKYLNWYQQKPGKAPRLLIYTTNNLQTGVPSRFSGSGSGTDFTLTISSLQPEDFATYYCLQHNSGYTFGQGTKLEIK
5. Hu153A6B1-3 (antibody, V domains shown, humanized mAb) VH: EVQLQESGPGLVKPSETLSLTCTVSGGSISSYNIHWVRQPPGKGLEWMGRIRYNGDTSYNSALKSRLTISRDTSKNQFSLKLSSVTAADTAVYYCARGPYGGSREPLFDYWGQGTMVTVSS VL: DIQMTQSPSSLSASVGDRVTITCKTSQNINKYLNWYQQKPGKAPKLLIYTTNNLQTGVPSRFSGSGSGTDFTLTISSLQPEDFATYYCLQHGSGYTFGQGTKLEIK

1: -2.36; 2: -3.06; 3: -1.28; 4: -2.20; 5: -1.62
